- TESTED TARGET: AKR1C3 (Homo sapiens (Human), UniProt P42330)
- Sequence (P42330 whole entry): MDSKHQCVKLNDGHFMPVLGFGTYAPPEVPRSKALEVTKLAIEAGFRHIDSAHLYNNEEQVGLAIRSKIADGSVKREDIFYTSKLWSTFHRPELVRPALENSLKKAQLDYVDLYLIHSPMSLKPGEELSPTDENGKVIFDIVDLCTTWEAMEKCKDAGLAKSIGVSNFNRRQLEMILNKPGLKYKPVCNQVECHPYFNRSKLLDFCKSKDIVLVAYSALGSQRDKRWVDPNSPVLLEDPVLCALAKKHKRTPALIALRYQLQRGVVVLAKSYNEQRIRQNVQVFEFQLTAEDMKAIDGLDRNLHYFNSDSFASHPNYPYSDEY
- ASSAY INFO: AKR enzyme inhibition assay, NADP+ dependent oxidation of S-tetralol, AKR1C3
- Format: biochemical
- STATED CONDITIONS: Table 2; ratio of AKR1C2 to AKR1C3 IC50
Could you label it Condition met if measured Selectivity 1C2:1C3 is 200 or higher, and Condition not met otherwise?

Worked set:
MOLECULE | ASSIGNED CATEGORY
Cc1ccc(CNC(=O)c2cc(/C=C/C(=O)O)cc(-c3ccc4nccnc4c3)c2)cc1 [Compound A1-q] | Condition not met
Cc1ccc(CNC(=O)c2cc(/C=C/C(=O)O)cc(-c3ccc4ncnn4c3)c2)cc1 [Compound A1-r] | Condition met
Cc1ccc(CNC(=O)c2cc(/C=C/C(=O)O)cc(-c3ccccc3F)c2)cc1 [Compound A1-e] | Condition met
CC(C)=CCOc1cc(/C=C/C(=O)O)cc(C(=O)NCc2ccc(C)cc2)c1 [Compound 10] | Condition not met
Cc1ccc(CNC(=O)c2cc(/C=C/C(=O)O)cc(-c3ccc(F)cc3)c2)cc1 [Compound A1-d] | Condition met

Does Cc1ccc(CNC(=O)c2cc(/C=C/C(=O)O)cc(-c3ccccc3)c2)cc1 [Compound A1-a] have a reported Selectivity 1C2:1C3 of at least 200?
Condition met

Does Cc1ccc(CNC(=O)c2cc(/C=C/C(=O)O)cc(-c3ccc(Cl)cc3)c2)cc1 [Compound A1-c] have a reported Selectivity 1C2:1C3 of at least 200?
Condition met

Does Cc1ccc(CNC(=O)c2cc(/C=C/C(=O)O)cc(-c3ccc(C)cc3)c2)cc1 [Compound A1-i] have a reported Selectivity 1C2:1C3 of at least 200?
Condition not met

====

Give measured pIC50 for each item. Keep answers brief.
- TESTED TARGET: AKR1C3 (Homo sapiens (Human))
- ASSAY INFO: AKR enzyme inhibition assay, NADP+ dependent oxidation of S-tetralol, AKR1C3
- Format: biochemical
- STATED CONDITIONS: Table 4; compounds of formula (A3); read-out: IC50 AKR1C3
Answers are plain numbers, as −log10 of the molar value.

COMPOUND | TESTED TARGET | RESULT VALUE
CC[C@@H](NC(=O)c1cc(/C=C/C(=O)O)cc(-c2ccc(C(C)C)cc2)c1)c1ccccc1 [Compound 20a] | AKR1C3 (Homo sapiens (Human)) | 6.92

Next up:
Need pIC50 of CC[C@@H](NC(=O)c1cc(/C=C/C(=O)O)cc(-c2ccc(Oc3ccccc3)cc2)c1)c1ccccc1 [Compound 20b] , thanks.
6.59

====

- TESTED TARGET: UniProt:P42330
- ASSAY INFO: AKR enzyme inhibition assay, NADP+ dependent oxidation of S-tetralol, AKR1C3
- Format: biochemical
- STATED CONDITIONS: read-out: IC50 AKR1C3
pIC50: −log10 of the molar value.
Could you label it T if measured pIC50 is 7 or higher, and F otherwise?

Does Cc1ccc(CNC(=O)c2cc(/C=C/C#N)cc(-c3ccc(Oc4ccccc4)cc3)c2)cc1 [Compound 16a] have a reported pIC50 of at least 7?
F

Does `Cc1ccc(CNC(=O)c2cc(/C=C/C(=O)O)cc(-c3ccc(CN4CCOCC4)c(F)c3)c2)cc1` have a reported pIC50 of at least 7?
F

Does `Cc1ccc(CNC(=O)c2cc(/C=C/C(=O)O)cc(-c3ccc(F)cc3)c2)cc1` have a reported pIC50 of at least 7?
T

Does `Cc1ccc(CNC(=O)c2cc(/C=C/C(N)=O)cc(-c3ccc(Oc4ccccc4)cc3)c2)cc1` have a reported pIC50 of at least 7?
F

Does `Cc1ccc(CNC(=O)c2cc(/C=C/C(=O)O)cc(-c3ccc(C(C)C)cc3)c2)cc1` have a reported pIC50 of at least 7?
F

Does `Cc1ccc(CNC(=O)c2cc(Br)cc(/C=C/C(=O)N(C)C)c2)cc1` have a reported pIC50 of at least 7?
F

Does CC(C)=CCc1cc(/C=C/C#N)cc(C(=O)NCc2ccc(C)cc2)c1 [Compound 16b] have a reported pIC50 of at least 7?
F

Does `Cc1ccc(CNC(=O)c2cc(Br)cc(/C=C/C#N)c2)cc1` have a reported pIC50 of at least 7?
F

Does `COC(=O)/C=C/c1cc(Br)cc(C(=O)NCc2ccc(C)cc2)c1` have a reported pIC50 of at least 7?
F

Does `Cc1ccc(CNC(=O)c2cc(/C=C/C(=O)O)cc(-c3ccccc3)c2)cc1` have a reported pIC50 of at least 7?
T

Does Cc1ccc(CNC(=O)c2cc(/C=C/C(=O)O)cc(CC(C)c3ccccc3)c2)cc1 (centres unmarked) have a reported pIC50 of at least 7?
F
